assay: protein stability index of a GFP-peptide fusion (yeast GPS) (PSI 1-4); higher = more stable; sorted into four equal gates, so the index is relative within each strain; conditions: doa10∆
Outcome label depends on protein stability index relative to 3: at/above gives satisfied, below gives not satisfied.

- VLRLKPGRKYTTLGKLS [RPL16A]: not satisfied
- KIINTHSDMASKMYNTD [PRP8]: not satisfied
- MDAYSTRPLTLSHGSLE [FAS1]: satisfied
- IETEFLLFTVKLKGLMK [IRR1]: satisfied
- VLGFLQLFHNLISIHSR [YJL039C/NUP192]: not satisfied
- ILGKNFDSVIVENLTVA [SMC1]: not satisfied

----------
test: protein stability index of a GFP-peptide fusion (yeast GPS) (PSI 1-4); higher = more stable; sorted into four equal gates, so the index is relative within each strain; conditions: pdr5∆
Attribute: protein stability index
outcome measure: protein stability index

• ALTRGEALLVVLVSSVT [RPS12] = 3.63
• PVVINLDAKNKVFVPPK [RPO31] = 3.13
• DLISKKTKTSLLPTIKR [RPR2] = 2.58
• VDLTSSNFADSADYEIL [YDL116W/NUP84] = 3.12
• TITTILILGLNTSIAQF [YML103C/NUP188] = 1.67
• DLLHPTAASEARKHKLK [RPS27A] = 3.11
• IIGPNGSGKSNMMDAIS [SMC1] = 3.24

----------
assay: protein stability index of a GFP-peptide fusion (yeast GPS) (PSI 1-4); higher = more stable; sorted into four equal gates, so the index is relative within each strain; conditions: pdr5∆
Attribute: protein stability index
outcome measure: protein stability index

• TKPEVASDMSDEDIITI [CDC53] = 2.56
• KCQTCQEGMNECPGHFG [RPO21] = 3.23
• SIYDKWTDPNLKSSLAD [RPN1] = 2.96
• YQTRARQKARTDAHTPL [RPR2] = 3.14
• KDMKLLRYYKNIWLNNK [NUT1] = 1.65
• PNINTWQQVTALAQQKL [GAL11] = 2.23
• KVVYIQRRSWRQYVGQL [DIS3] = 3.51
• YQKKQYKDSLALINDLL [RPN6] = 2.68
• LKTEAANVLDPSLRKLI [BRR2] = 2.61
• MEQCKQRYQDLSQQQKD [YIL149C/MLP2] = 3.3
• EIDDFNDIDDLDMELAE [SEC65] = 3.11
• LFQTIEKLINNSDDCMM [ECM29] = 2.92
• MEELGIVTPVEKAVEEK [RPT3] = 1.11
• HIGHSALKGPVRDKLDE [DPB4] = 3.18
• AAAGAAMIDAGALEEIT [FAS2] = 2.96

----------
test: protein stability index of a GFP-peptide fusion (yeast GPS) (PSI 1-4); higher = more stable; sorted into four equal gates, so the index is relative within each strain; conditions: san1∆
Attribute: protein stability index
outcome measure: protein stability index

• VSPAFRVQVGDIVTVGQ [RPS11A] = 2.55
• TFLPSYMKFSNKYLELC [RRI2] = 2.37
• HMATALQIAQLTLKHRQ [RPN10] = 1.59
• STEYMMQFAKSKTVKVL [RPN6] = 1.2
• FYRGNYTDFENTFQKTV [FAS1] = 2.34
• EEDDEGELEQAQAWINL [RPN7] = 3.43
• SAAINNEDARAIFNNEF [RPN4] = 3.04
• TDSRTGQSTILVGSEIY [CDC53] = 2.94
• TISKTVSSTIPRETIPF [FAS2] = 2.75
• AAEQQSKAFKESSDFGA [SRP54] = 2.58
• TGVSVEAVDDVFQAKMM [RPN11] = 2.92
• QDHFHRLNYLYQISAYQ [RPR2] = 2.42
• NTTTYKSRPDRPKPVSP [SNF5] = 3
• NTSFSFTKPPANETDKR [YOR098C/NUP1] = 3.07

----------
assay: protein stability index of a GFP-peptide fusion (yeast GPS) (PSI 1-4); higher = more stable; sorted into four equal gates, so the index is relative within each strain; details: san1∆
Outcome label depends on protein stability index relative to 2: at/above gives TRUE, below gives FALSE.

- DGIHYILNHIGQLTGIY [PRP8]: FALSE
- RKFALEKLYIFYKLNMP [SRP72]: FALSE
- NSIYCPTQTVAELDLMS [RPN6]: FALSE
- LHLANEHGLQITHTENY [BRN1]: TRUE
- GDKVVVTIWYRAPELLL [SSN3]: FALSE
- VARTFWASKYGQEYPRI [BRR2]: TRUE
- DGAGGDNEVQRTMLELI [RPT1]: TRUE
- VEIEKRILKLGTQLATL [YGR119C/NUP57]: FALSE
- KDVLAQTSVTTNFNEIT [SWP82]: TRUE
- NDLRDMILNYNPSQGVS [UBP6]: TRUE
- LLIHRKGLTYLHLDYNF [PRP8]: FALSE
- YHGLYTNYEMSYWQKSY [LIN1]: TRUE
- ESDLYKLKECPFDMGGY [RPB2]: TRUE
- KKDIKIGTNDLFQVESA [SIR4]: TRUE
- PNNETSVLSSKPGSKPE [SIR3]: TRUE
- QLYKRDPVSGAILVPMT [YJR042W/NUP85]: TRUE
- TESIALSSMRFKPSQEP [RRI1]: TRUE
- KDAEYLRNYLTPNVREE [PUP1]: TRUE
- LLETKLRQQYEIELKKL [SWI1]: TRUE
- KDVKAWAGKRLWDQDIA [COR1]: TRUE
- GGQGNTDDYFEELRDLY [FAS1]: TRUE
- YSVLLESPLSVAIQQGD [YML103C/NUP188]: FALSE
- IDFAPTSPFGGARPGRV [RPS9A]: TRUE
- PWGDYLQLETPAEVGRA [BRR2]: FALSE
- SDIPKTTVQVAEEAIVN [PRE4]: FALSE
- GVTSLGIKATNGVVIAT [PRE8]: TRUE
- YQWRDLIARRDDESPRF [RRP6]: TRUE
- LTSDLVYFGDENKVMLP [RRI2]: TRUE
- SKRPQLGEIPNPMKKHK [SIR4]: TRUE

----------
Attribute: protein stability index
assay: protein stability index of a GFP-peptide fusion (yeast GPS) (PSI 1-4); higher = more stable; sorted into four equal gates, so the index is relative within each strain; details: doa10∆
outcome measure: protein stability index

- SILRKSSPEEPFMSYSP [SNF12]: 2.64
- ELKKYMDKKILLNINGS [SMX2]: 1.88
- TSTDGKKRSKARKETYS [HTB1]: 3.07
- YSPTSPSYSPTSPSYSP [RPO21]: 2.76
- ALEEAKLSDNISICMIL [YDL116W/NUP84]: 2.87
- PNNASSHISASASPHLA [SNF2]: 2.53
- VLNQQLPIESQFVSKLV [BRR2]: 1.74
- ESKGNAFKHKRALVEHI [RPL19A]: 3.36
- VGEKLVVVVLEEPSASI [SIR3]: 3.07
- VEKRIGKIVSQRGKWNL [RGR1]: 2.88
- IDNSPQAISYLHKLQRM [GRR1]: 2.96
- IGISIVGRFSTISSADF [ECM29]: 2.81
- LHLANEHGLQITHTENY [BRN1]: 2.71
- LLLRCDDRVDKKFVSQI [POP3]: 3.27
- SFLHVDDKLAYIRVNHA [POP8]: 2.67
- RAKSCGVDAMSVDDLKK [RPL1A]: 2.54
- PSKLVITKLHLDKDRKA [RPL26A]: 1.73
- VNISAVDNTTEQSNSRK [YCG1]: 3.26
- PESQGQHEQQKQQEQLE [YMR153W/NUP53]: 3.4
- KYNVNISALTQTEIKDI [PRP8]: 2.6
- AKQALDLYHFALNYENE [SNF2]: 2.47
- IIGPNGSGKSNMMDAIS [SMC1]: 3.06
- AMFFGNYGSSLQWHAMI [AAR2]: 2.41
- PENTAMFNPLHESYCLP [YMR129W/POM152]: 2.44
- ASMLGLFVFTEGWPKFQ [QCR10]: 1.79
- GNRYLEKRLNLRVEHIK [RPL21A]: 3.05
- RQREMAEEQTKLQSQSL [YLR018C/POM34]: 3.18
- GRENFVYANNPEVSDDG [SIR3]: 3.05
- TYQTERFTKFSDTLKEF [YDL116W/NUP84]: 2.38
- LLAKRLSERKAEKAEIR [RPS6A]: 3.35
